Could you please report measured TGI for the items listed next?
Test system: UACC-62 melanoma
Assay remarks: NCI tumour cell line growth inhibition, 48 h
Give bare numbers, in µM.

1. Oc1ccc2cc(Br)ccc2c1-c1c(O)ccc2ccc(Br)cc12    31
2. CCCCCO/N=C\c1c2c(O)c3c(O)c(C)c4c(c3c1O)C(=O)C(C)(O/C=C\C(OC)C(C)C(OC(C)=O)C(C)C(O)C(C)C(O)C(C)/C=C\C=C(\C)C(=O)N2)O4 (stereo unspecified)    2.71
3. Oc1[nH]c2ccccc2c1N=NC(=S)Nc1ccccc1Cl    20.6
4. C[N+](C)(C)CC1CCCC1=O (stereo unspecified)    5.67
5. Cc1ccc(-c2nc(N/N=C/C=C/c3ccccc3)c3ccccc3n2)cc1    48.1
6. C=C1CC(c2ccc(OCCCN3C(=O)c4ccccc4C3=O)cc2)OC1=O (stereo unspecified)    4.75

API: the following record is the query input.
Challenge: TGI lookup needed for O=S(=O)(c1cccc(N=C=S)c1)c1cccc(N=C=S)c1 , thanks.
Response given: 36.2

---

Test system: SW-620 colon
Assay remarks: NCI tumour cell line growth inhibition, 48 h; in the data active = GI50 below about 0.43 µM; inactive = the rest
Form entry, call: pick from active, inactive

Please review the entries below; each comes with its answer.
1) COc1ccc(-c2nc(/C=C3\SC(=NCc4ccccc4)NC3=O)c3ccccn23)cc1    inactive
2) C/C(=C\c1cnc(C)s1)[C@@H]1C[C@@H]2O[C@@H]2CCC[C@H](C)[C@H](O)[C@@H](C)C(=O)C(C)(C)[C@@H](O)CC(=O)O1    active
3) Oc1c(I)cc(I)c2cccnc12    inactive
4) c1ccc(-c2nc(N3CCNCC3)c3oc(-c4ccccc4)nc3n2)cc1    inactive
5) COC(=O)c1cncc(/C=C/c2c(C)cc(O)cc2C)c1    inactive

Challenge: Hello, I am checking results. What call was entered for C(=N/N(Cc1ccccc1)Cc1ccccc1)/c1ccccc1 ?
Response given: inactive

Challenge: Moving on to O=C(CCCCCCN1CC(=O)N2[C@@H](c3ccc(Cl)c(Cl)c3)c3[nH]c4ccccc4c3C[C@H]2C1=O)NO
Response given: inactive

Challenge: Moving on to CC1OC(OC2C(O)CC(OC3C(O)CC(OC4CCC5(C)C(CCC6C5CC(O)C5(C)C(C7=CC(=O)OC7)CCC65O)C4)OC3C)OC2C)CC(O)C1O (stereo not drawn)
Response given: active

Challenge: Moving on to Cc1cc(N=Nc2ccccc2C)ccc1N
Response given: inactive

Challenge: Moving on to Cc1cc(C#Cc2ccc(C(C)(C)C)cc2)ccc1-n1c(/C=C/c2ccc(O)cc2O)nc2ccccc2c1=O
Response given: inactive

Challenge: Moving on to CC(=O)NCc1cccc(C#Cc2cncnc2Nc2ccc(OCc3cccc(F)c3)c(Cl)c2)c1
Response given: inactive

Challenge: Moving on to NS(=O)(=O)c1ccc(-c2cc3ccncc3cc2OCc2ccccc2)cc1
Response given: inactive

Challenge: Moving on to O=C(CC1(O)C(=O)N(Cc2ccccc2)c2ccccc21)c1ccc(C(=O)NCC2CCC3(CC2)OOC2(CCCCC2)OO3)cc1 (stereo not drawn)
Response given: inactive

Challenge: Moving on to N#CC1=C(/N=C/c2ccccc2)Oc2c(ccc3ccccc23)C1c1ccccc1 (stereo not drawn)
Response given: active

---

Could you please report measured TGI for the items listed next?
System: NCI-H522 lung
Assay remarks: NCI tumour cell line growth inhibition, 48 h

Worked examples, 3 compounds total:
1. NC(=O)C(=O)C1CCC2=C(Sc3ccccc3N2)C1=O (centres undefined)    > 100 µM
2. Cc1cn(CCCCC2=NCCCN2)c(=O)[nH]c1=O    > 46.3 µM
3. COCCNC(=O)C1C(=O)C(=O)N(CCOC)C1=O (centres undefined)    > 100 µM

Here are 6 compounds. What values of TGI were reported for them?
1. Fc1ccc(N2C(=S)SC(=Nc3ccccc3)C2=Nc2ccccc2)cc1
2. c1ccc(CCc2cccnc2)nc1
3. COC1C(O)C(CO)OC(OC2C(O)COC(OC3C(C)OC(OC4C(O[C@H]5CC[C@@]6(C)C(CC=C7[C@H]6CCC68C(=O)O[C@@](C)(CCCC(C)C)[C@H]6[C@@H](OC(C)=O)C[C@@]78C)C5(C)C)OCC(OS(=O)(=O)O)C4O)C(OC4OCC(O)C(O)C4O)C3O)C2O)C1O (some centres undefined)
4. C[C@]12C[C@@H](OC(=O)[C@]1(C)O)[C@@H]([C@]1(O)CC[C@H]3[C@@H]4C[C@H]5O[C@]56C[C@H]5O[C@H]5C(=O)[C@]6(C)[C@H]4CC[C@@]31C)C2
5. CCOC(=O)c1nc2cc(C(F)(F)F)ccc2nc1Nc1ccc(OC)cc1
6. Oc1ccc(C(c2ccc(O)cc2)c2ccc(Br)cn2)cc1

Response given:
> 100 µM
> 100 µM
0.497 µM
> 50 µM
> 100 µM
46.6 µM

---

System: SW-620 colon
Assay remarks: NCI tumour cell line growth inhibition, 48 h
Experimental endpoint: TGI (µM)
One number for each entry, in µM.

1) Clc1cc(Cl)cc(N=C/C=C/Nc2cc(Cl)cc(Cl)c2)c1    37.6
2) CCCCc1ccc(-n2sc3ncc(C)cc3c2=O)cc1    78
3) CCN1CCC(O)(/C=C/c2ccccc2C)C(C(=O)/C=C/c2ccccc2C)C1 (centres undefined)    10.1

Here are 2 molecules. What values of TGI were reported for them?
1. O=C1C(Cl)C2(CC(/C=C/c3ccccc3)=NN2c2cccc(S(=O)(=O)O)c2)N1c1nc2ccccc2s1 (centres undefined)
2. CCN(CC)CCCCCCNc1cc(OC)cc2cccnc12

Response given:
93.6
3.71

---

Tested on: SK-MEL-2 melanoma
Assay remarks: NCI tumour cell line growth inhibition, 48 h
Binary call on TGI: condition met from 70 µM upward, condition not met beneath that.

Please review the entries below; each comes with its answer.
1. CCCCCCCCCCCCC(Br)C(=O)NCC(N)=O (stereo unspecified)    condition not met
2. Cc1cccc2c3c(sc12)C(c1ccc(Cl)cc1)C(C#N)=C(N)O3 (stereo unspecified)    condition not met
3. Cc1ccc(NC(=O)CC2C(=O)Nc3ccccc3S2(=O)=O)c(C)c1 (stereo unspecified)    condition met
4. Nc1nc(Nc2ccccc2SSc2ccccc2Nc2nc(N)nc(C(Cl)(Cl)Cl)n2)nc(C(Cl)(Cl)Cl)n1    condition not met

Please look at the following compound next.
Challenge: Does TGI meet or surpass 70 µM for C(=N/N(Cc1ccccc1)Cc1ccccc1)/c1ccccc1 ?
Response given: condition met

---

System: SK-OV-3 ovarian
Assay remarks: NCI tumour cell line growth inhibition, 48 h
Experimental endpoint: TGI (µM)
Give bare numbers, in µM.

Worked examples, 4 compounds total:
1) Oc1[nH]c2ccccc2c1N=NC(=S)Nc1ccccc1Cl    35.5
2) COc1cc2c(cc1OCCCCN1CCN(C(=S)SCCC(C#N)(c3ccccc3)c3ccccc3)CC1)N=C[C@@H]1CCCN1C2=O    9.81
3) COc1cc2nc(-c3cc(F)ccc3O)nc(N[C@@H]3CNC[C@H]3C(C)(C)O)c2cc1OC    4.72
4) O=C(CCCCCCN1CC(=O)N2[C@@H](c3ccc(Cl)c(Cl)c3)c3[nH]c4ccccc4c3C[C@H]2C1=O)NO    9.81

API: the following record is the query input.
Challenge: TGI lookup needed for c1cc2nnc1SCCCSc1ccc(nn1)SCCCS2 , thanks.
Response given: 92.3

---

Tested on: LOX IMVI melanoma
Assay remarks: NCI tumour cell line growth inhibition, 48 h
Experimental endpoint: GI50

Worked examples, 5 molecules total:
1. O=[N+]([O-])c1ccc(OC2CC3C4C=CC3C2C4)c([N+](=O)[O-])c1 (configuration not stated)    > 100 µM
2. Oc1cccc2ccc(N/N=C/c3cc(CN4CCOCC4)c(O)c4ncccc34)nc12    0.0426 µM
3. COc1cc2nc(-c3cc(F)ccc3O)nc(N[C@@H]3CNC[C@H]3C(C)(C)O)c2cc1OC    1.46 µM
4. Cc1ccc(-c2nc([P+](c3ccccc3)(c3ccccc3)c3ccccc3)c(S(=O)(=O)c3ccc(C)cc3)o2)cc1    0.328 µM
5. CSc1nc2sc3c(c2c(=O)n1-c1ccc(C(C)C)cc1)CCC(=O)C3    1.77 µM

Here are 7 molecules. What values of GI50 were reported for them?
1. Cc1cc(C)nc(SC2=C(Nc3cc(Cl)ccc3O)C(=O)N(Cc3ccccc3)C2=O)n1
2. CCCCCCNC(=O)Oc1ccc(/C(=C(\C)c2ccc(Cl)cc2)c2ccc(OCCN3CCCCC3)cc2)cc1
3. C#CCNC(=O)[C@H](CC)[C@H]1CC[C@H](C)[C@H]([C@@H](C)[C@H](O)[C@H](C)C(=O)[C@H](CC)C2O[C@]3(C=CC(=O)[C@]4(CC[C@@](C)([C@H]5CC[C@](O)(CC)[C@H](C)O5)O4)O3)[C@H](C)C[C@@H]2C)O1 (some centres not stated)
4. COc1ncnc(NS(=O)(=O)c2ccc(N=C3C(=O)N(CN4CCN(c5c(F)cc6c(=O)c(C(=O)O)cn(C7CC7)c6c5OC)CC4C)c4ccc(Br)cc43)cc2)c1OC (configuration not stated)
5. O=C(CC1(O)C(=O)N(Cc2ccccc2)c2ccccc21)c1ccc(C(=O)NCC2CCC3(CC2)OOC2(CCCCC2)OO3)cc1 (configuration not stated)
6. O=C(Nc1cccc(-n2cc(-c3ccncc3)c(-c3cc(O)cc(Cl)c3)n2)c1)c1cc(C(F)(F)F)cc(C(F)(F)F)c1
7. C[C@]12CC[C@@H]3c4cc(OC(F)F)c(OS(N)(=O)=O)cc4CC[C@H]3[C@@H]1CC[C@@H]2O

Response given:
["27.2 µM", "4.83 µM", "2.06 µM", "1.22 µM", "0.154 µM", "3.29 µM", "0.428 µM"]

Here are 5 molecules. What values of GI50 were reported for them?
1. CCC1(O)C(=O)OCc2c1cc1n(c2=O)Cc2cc3c(NC(=O)CN)cccc3nc2-1 (configuration not stated)
2. CN(CCNCc1ccccn1)CCNCc1ccccn1
3. COC(=O)[C@H]1CCCN1C(=O)[C@H]1CCCN1C(=O)[C@@H](Cc1c[nH]c2ccccc12)NC(=S)Nc1cc(C(F)(F)F)cc(C(F)(F)F)c1
4. COc1ccc(/C=C(\C#N)n2nnc3c(F)cccc32)cc1
5. NS(=O)(=O)c1ccc(-c2cc3ccncc3cc2OCc2ccccc2)cc1

Response given:
1: 0.146 µM; 2: 2.48 µM; 3: 1.65 µM; 4: 0.493 µM; 5: > 22.6 µM
